test system: 327498-153-R-J2-PDC complex spheroid growth, % test/control; experiment: Anticancer human tumor 327498-153-R-J2-PDC patient-derived uterine carcinosarcoma cell line growth inhibition [Asc]; settings: curve of first compound; second compound 0.316 µM
Quick list: IC50 per entry.
Supply the numeric figure in nM, leaving out any unit text.

Recorded IC50, per entry:
query: Can you look up the measured IC50 of NC(=O)C(=Cn1cnc(-c2cc(C(F)(F)F)cc(C(F)(F)F)c2)n1)c1cncnc1 + CNC(C)C(=O)NC1CN(S(=O)(=O)c2cccc(S(=O)(=O)N3CCC4CCC(C(=O)NC(c5ccccc5)c5ccccc5)N4C(=O)C(NC(=O)C(C)NC)C3)c2)CCC2CCC(C(=O)NC(c3ccccc3)c3ccccc3)N2C1=O for me?
result: 40.9

query: And the next one, COc1c(OCCCN2CCOCC2)ccc2c3n(c(=NC(=O)c4cnc(N)nc4)nc12)CCN3 + Cc1c(S(C)(=O)=O)c(-c2cc(F)cc(N3CCN(c4ccc(NS(=O)(=O)c5ccc(NC(CCN6CCC(C(=O)OCCCP(=O)(O)O)CC6)CSc6ccccc6)c(S(=O)(=O)C(F)(F)F)c5)cc4)CC3)c2)c(-c2ccc(Cl)cc2)n1C(C)C ?
result: 96.5

query: Same read-out for CCN1C(C(=O)NC23CCC(C(=O)O)(CC2)CC3)C(c2cccc(Cl)c2F)C2(C(=O)Nc3cc(Cl)ccc32)C12CCCCC2 (stereo not given) + CNC(C)C(=O)NC1CN(S(=O)(=O)c2cccc(S(=O)(=O)N3CCC4CCC(C(=O)NC(c5ccccc5)c5ccccc5)N4C(=O)C(NC(=O)C(C)NC)C3)c2)CCC2CCC(C(=O)NC(c3ccccc3)c3ccccc3)N2C1=O ?
result: 173

query: One more molecule: C=C(F)C(=O)N1CCN(c2nc(OCC3CCCN3C)nc3c2CCN(c2cccc4cccc(Cl)c24)C3)CC1CC#N (stereo not given) + Cc1c(S(C)(=O)=O)c(-c2cc(F)cc(N3CCN(c4ccc(NS(=O)(=O)c5ccc(NC(CCN6CCC(C(=O)OCCCP(=O)(O)O)CC6)CSc6ccccc6)c(S(=O)(=O)C(F)(F)F)c5)cc4)CC3)c2)c(-c2ccc(Cl)cc2)n1C(C)C
result: 633

Next, consider the following molecule.
query: Fill in the blank: the reported IC50 of Cc1nc(N2CCC3(CC2)COC(C)C3N)c(CO)nc1Sc1ccnc(N)c1Cl (stereo not given) + Cc1c(S(C)(=O)=O)c(-c2cc(F)cc(N3CCN(c4ccc(NS(=O)(=O)c5ccc(NC(CCN6CCC(C(=O)OCCCP(=O)(O)O)CC6)CSc6ccccc6)c(S(=O)(=O)C(F)(F)F)c5)cc4)CC3)c2)c(-c2ccc(Cl)cc2)n1C(C)C is ____.
result: 625

* * *

system: 327498-153-R-J2-PDC complex spheroid growth, % test/control; experiment: Anticancer human tumor 327498-153-R-J2-PDC cell line growth inhibition [Asc]; details: second compound 0.1 µM; first compound 0.001 µM; stronger effect = lower value;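 also: spheroids exposed to compound for 7 days after 3 days of growth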;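 as to viability, T/C: 100% = DMSO vehicle control wells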
measured property: viability, T/C (%)
Your answer is read as %, so omit the unit and give the number.

Answered cases to consult:
query: Param readout = viability, T/C; param system = 327498-153-R-J2-PDC complex spheroid growth, % test/control; param query = NC1CCC(NC2CC2c2ccccc2)CC1 (centres undefined) + CNC(C)C(=O)NC1CN(S(=O)(=O)c2cccc(S(=O)(=O)N3CCC4CCC(C(=O)NC(c5ccccc5)c5ccccc5)N4C(=O)C(NC(=O)C(C)NC)C3)c2)CCC2CCC(C(=O)NC(c3ccccc3)c3ccccc3)N2C1=O ; response: value
result: 101

query: Another compound: Cn1ncnc1[C@H]1c2n[nH]c(=O)c3cc(F)cc(c23)N[C@@H]1c1ccc(F)cc1 + CNC(C)C(=O)NC1CN(S(=O)(=O)c2cccc(S(=O)(=O)N3CCC4CCC(C(=O)NC(c5ccccc5)c5ccccc5)N4C(=O)C(NC(=O)C(C)NC)C3)c2)CCC2CCC(C(=O)NC(c3ccccc3)c3ccccc3)N2C1=O
result: 106

query: Query NC1CCC(NC2CC2c2ccccc2)CC1 (centres undefined) + Cc1c(S(C)(=O)=O)c(-c2cc(F)cc(N3CCN(c4ccc(NS(=O)(=O)c5ccc(NC(CCN6CCC(C(=O)OCCCP(=O)(O)O)CC6)CSc6ccccc6)c(S(=O)(=O)C(F)(F)F)c5)cc4)CC3)c2)c(-c2ccc(Cl)cc2)n1C(C)C next
result: 109

Switching to the query record.
query: Reported viability, T/C for 327498-153-R-J2-PDC complex spheroid growth, % test/control, given Cn1ncnc1[C@H]1c2n[nH]c(=O)c3cc(F)cc(c23)N[C@@H]1c1ccc(F)cc1 + Cc1c(S(C)(=O)=O)c(-c2cc(F)cc(N3CCN(c4ccc(NS(=O)(=O)c5ccc(NC(CCN6CCC(C(=O)OCCCP(=O)(O)O)CC6)CSc6ccccc6)c(S(=O)(=O)C(F)(F)F)c5)cc4)CC3)c2)c(-c2ccc(Cl)cc2)n1C(C)C ?
result: 97.1

* * *

This listing pairs molecules with measured viability, T/C.
system: 327498-153-R-J2-PDC complex spheroid growth, % test/control; assay: Anticancer human tumor 327498-153-R-J2-PDC cell line growth inhibition [Asc]; settings: second compound 1 µM; first compound 0.00316 µM; stronger effect = lower value;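 also: spheroids exposed to compound for 7 days after 3 days of growth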;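 as to viability, T/C: 100% = DMSO vehicle control wells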
Numbers only here, please. The scale is %.

query: # query: viability, T/C | item COc1c(OCCCN2CCOCC2)ccc2c3n(c(=NC(=O)c4cnc(N)nc4)nc12)CCN3 + CNC(C)C(=O)NC1CN(S(=O)(=O)c2cccc(S(=O)(=O)N3CCC4CCC(C(=O)NC(c5ccccc5)c5ccccc5)N4C(=O)C(NC(=O)C(C)NC)C3)c2)CCC2CCC(C(=O)NC(c3ccccc3)c3ccccc3)N2C1=O | system: 327498-153-R-J2-PDC complex spheroid growth, % test/control
result: 111

Shift focus to the following entry.
query: Lab note: need viability, T/C with 327498-153-R-J2-PDC complex spheroid growth, % test/control for entry Cn1ncnc1[C@H]1c2n[nH]c(=O)c3cc(F)cc(c23)N[C@@H]1c1ccc(F)cc1 + CNC(C)C(=O)NC1CN(S(=O)(=O)c2cccc(S(=O)(=O)N3CCC4CCC(C(=O)NC(c5ccccc5)c5ccccc5)N4C(=O)C(NC(=O)C(C)NC)C3)c2)CCC2CCC(C(=O)NC(c3ccccc3)c3ccccc3)N2C1=O , please look it up.
result: 107

* * *

tested on: 327498-153-R-J2-PDC complex spheroid growth, % test/control; assay: Anticancer human tumor 327498-153-R-J2-PDC cell line growth inhibition [Asc]; conditions: curve of first compound; second compound 1 µM;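 also: spheroids exposed to compound for 7 days after 3 days of growth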
measured property: IC50 (nM)
# value in nM; strip the unit string

query: Look at this compound and give its reported IC50. C#Cc1c(F)ccc2cc(O)cc(-c3ncc4c(N5CC6CCC(C5)N6)nc(OCC56CCCN5CC(F)C6)nc4c3F)c12 (configuration not stated) + Cc1c(S(C)(=O)=O)c(-c2cc(F)cc(N3CCN(c4ccc(NS(=O)(=O)c5ccc(NC(CCN6CCC(C(=O)OCCCP(=O)(O)O)CC6)CSc6ccccc6)c(S(=O)(=O)C(F)(F)F)c5)cc4)CC3)c2)c(-c2ccc(Cl)cc2)n1C(C)C
result: 3180

query: What do we get for C=C(F)C(=O)N1CCN(c2nc(OCC3CCCN3C)nc3c2CCN(c2cccc4cccc(Cl)c24)C3)CC1CC#N (configuration not stated) + CNC(C)C(=O)NC1CN(S(=O)(=O)c2cccc(S(=O)(=O)N3CCC4CCC(C(=O)NC(c5ccccc5)c5ccccc5)N4C(=O)C(NC(=O)C(C)NC)C3)c2)CCC2CCC(C(=O)NC(c3ccccc3)c3ccccc3)N2C1=O ?
result: 985

query: Okay, and NC(=O)C(=Cn1cnc(-c2cc(C(F)(F)F)cc(C(F)(F)F)c2)n1)c1cncnc1 + Cc1c(S(C)(=O)=O)c(-c2cc(F)cc(N3CCN(c4ccc(NS(=O)(=O)c5ccc(NC(CCN6CCC(C(=O)OCCCP(=O)(O)O)CC6)CSc6ccccc6)c(S(=O)(=O)C(F)(F)F)c5)cc4)CC3)c2)c(-c2ccc(Cl)cc2)n1C(C)C ?
result: 31.2

---
query: For NC(=O)C(=Cn1cnc(-c2cc(C(F)(F)F)cc(C(F)(F)F)c2)n1)c1cncnc1 + CNC(C)C(=O)NC1CN(S(=O)(=O)c2cccc(S(=O)(=O)N3CCC4CCC(C(=O)NC(c5ccccc5)c5ccccc5)N4C(=O)C(NC(=O)C(C)NC)C3)c2)CCC2CCC(C(=O)NC(c3ccccc3)c3ccccc3)N2C1=O , what is its reported IC50?
result: 46

* * *

Test system: 327498-153-R-J2-PDC complex spheroid growth, % test/control
Assay: Anticancer human tumor 327498-153-R-J2-PDC cell line growth inhibition [Asc];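 also: spheroids exposed to compound for 7 days after 3 days of growth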;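 as to viability, T/C: 100% = DMSO vehicle control wells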
Settings: second compound 0.0316 µM; first compound 0.1 µM; stronger effect = lower value
Text: Multicellular complex tumor spheroid response to apoptosis pathway targeting inhibitors Alrizomadlin, Pelcitoclax, and Dasminapant in combination with a variety of drugs and investigational agents in selected tumor cell lines […] Compounds. […] If the clinical Cmax for an agent had not been determined, the highest concentration tested was 10 microM. […]
measured property: viability, T/C (%)
Write down the numeric answer in % and omit the unit.

query: viability, T/C for Cn1ncnc1[C@H]1c2n[nH]c(=O)c3cc(F)cc(c23)N[C@@H]1c1ccc(F)cc1 + CNC(C)C(=O)NC1CN(S(=O)(=O)c2cccc(S(=O)(=O)N3CCC4CCC(C(=O)NC(c5ccccc5)c5ccccc5)N4C(=O)C(NC(=O)C(C)NC)C3)c2)CCC2CCC(C(=O)NC(c3ccccc3)c3ccccc3)N2C1=O ?
result: 8.68
